Target: androgen receptor (Rattus norvegicus)
Sequence (P15207 1-902): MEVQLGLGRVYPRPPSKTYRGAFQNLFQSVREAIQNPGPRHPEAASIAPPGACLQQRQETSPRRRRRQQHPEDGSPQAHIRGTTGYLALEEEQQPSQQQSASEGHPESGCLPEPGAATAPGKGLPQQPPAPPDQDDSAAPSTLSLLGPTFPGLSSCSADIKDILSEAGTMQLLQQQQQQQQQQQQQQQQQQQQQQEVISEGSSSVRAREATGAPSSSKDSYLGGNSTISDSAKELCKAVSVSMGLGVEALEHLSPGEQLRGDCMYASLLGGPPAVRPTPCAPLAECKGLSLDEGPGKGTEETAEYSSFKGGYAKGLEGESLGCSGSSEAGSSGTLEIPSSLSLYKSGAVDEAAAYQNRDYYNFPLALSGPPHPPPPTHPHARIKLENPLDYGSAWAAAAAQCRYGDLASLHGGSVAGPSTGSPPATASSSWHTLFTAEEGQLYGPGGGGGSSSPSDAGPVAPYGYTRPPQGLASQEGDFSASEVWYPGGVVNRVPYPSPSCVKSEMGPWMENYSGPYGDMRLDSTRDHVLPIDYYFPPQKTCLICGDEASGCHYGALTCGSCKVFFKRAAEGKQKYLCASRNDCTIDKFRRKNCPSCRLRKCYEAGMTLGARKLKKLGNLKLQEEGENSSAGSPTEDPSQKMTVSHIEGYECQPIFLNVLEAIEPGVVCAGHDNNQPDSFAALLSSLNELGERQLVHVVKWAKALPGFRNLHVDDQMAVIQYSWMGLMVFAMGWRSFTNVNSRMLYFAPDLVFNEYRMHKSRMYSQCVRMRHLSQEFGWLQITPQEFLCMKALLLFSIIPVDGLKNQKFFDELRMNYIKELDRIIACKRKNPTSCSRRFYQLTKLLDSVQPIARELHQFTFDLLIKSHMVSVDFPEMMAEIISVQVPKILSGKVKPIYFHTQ
Test: L929 androgen receptor functional assay, adenovirus transduction
Type: cell-based
Parameters: expressed in transfected cells
Settings: 3 μM; L929 cells, antagonist testing with R1881, luciferase
Entry flag: Satisfied if % Inhibition @ 3 μM reaches 30%; Not satisfied if it does not.

Solved cases (4 shown):
CC1(C(=O)Nc2cc(C(F)(F)F)cc(C(F)(F)F)c2)CN(c2ccc(F)cc2)C(=O)N1 (racemic) : Not satisfied
CC1(C(=O)Nc2ccc(C#N)c(C(F)(F)F)c2)CN(Cc2ccc(F)cc2)C(=O)N1 (racemic) : Satisfied
CC1(C(=O)Nc2ccc(C(F)(F)F)nc2)CN(c2ccccc2)C(=O)N1 (racemic) : Not satisfied
CC1(C(=O)Nc2cccc(C(F)(F)F)c2)CN(c2ccc(F)cc2)C(=O)N1 (racemic) : Not satisfied

--- query ---
-- ask Could you please find out whether COc1ccc(N2CC(C)(C(=O)Nc3ccc(C#N)c(C(F)(F)F)c3)NC2=O)cc1 (racemic) has % Inhibition @ 3 μM that meets 30% or exceeds it?
-- reply Not satisfied
